Target: histamine 3 receptor (H3R) (Homo sapiens, UniProt Q9Y5N1)
Sequence (Q9Y5N1 whole entry): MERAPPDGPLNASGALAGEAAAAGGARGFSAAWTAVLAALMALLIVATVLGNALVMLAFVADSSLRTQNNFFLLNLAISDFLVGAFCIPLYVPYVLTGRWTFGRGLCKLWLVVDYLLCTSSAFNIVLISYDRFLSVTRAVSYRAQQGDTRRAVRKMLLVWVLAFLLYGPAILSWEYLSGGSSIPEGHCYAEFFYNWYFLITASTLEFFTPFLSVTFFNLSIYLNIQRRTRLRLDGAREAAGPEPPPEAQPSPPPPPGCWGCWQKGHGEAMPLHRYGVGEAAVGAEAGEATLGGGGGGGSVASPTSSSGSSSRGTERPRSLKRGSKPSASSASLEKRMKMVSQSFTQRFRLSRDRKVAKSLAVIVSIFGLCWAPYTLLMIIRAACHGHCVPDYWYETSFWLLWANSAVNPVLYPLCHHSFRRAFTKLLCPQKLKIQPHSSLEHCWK
Measurement Type: Ki (nM)

# Molecule, Unit Abbrev, Readout Value
rows = [
    ("CCCNC(=O)c1cc2cc(N3CCN(C4CCCC4)CC3)ncc2[nH]1", "nM", 27.4),
]

(a) O=C(c1cc2cc(N3CCN(C4CCCC4)CC3)ncc2[nH]1)N1CCCC1
(b) CC(C)N1CCN(c2cc3cc(C(=O)N4CCC(F)(F)CC4)[nH]c3cn2)CC1
QUERY: When a and b are compared, which has the higher number for Ki? I would appreciate it if you answered with the label of your choice.
RESULT: b
(b: 63.1 nM, a: 33 nM)

Hello, the source for this data is patent US7348323B2, in case you need it.
